target_desc: RIPK1 (recombinant GST-RIPK1 kinase domain, residues 1-327) (Homo sapiens (Human))
Sequence (Q13546 1-327): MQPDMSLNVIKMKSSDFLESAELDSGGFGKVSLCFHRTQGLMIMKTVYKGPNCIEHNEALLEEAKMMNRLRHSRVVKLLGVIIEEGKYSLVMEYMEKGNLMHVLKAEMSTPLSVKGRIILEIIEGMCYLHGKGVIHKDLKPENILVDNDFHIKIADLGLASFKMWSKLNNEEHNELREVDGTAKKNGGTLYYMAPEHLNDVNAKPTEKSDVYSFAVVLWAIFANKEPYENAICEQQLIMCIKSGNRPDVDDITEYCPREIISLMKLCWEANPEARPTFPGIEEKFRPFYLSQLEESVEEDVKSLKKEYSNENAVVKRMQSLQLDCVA
assay_procedure: RIPK1-ADP-Glo Enzymatic Assay
Format: biochemical
stated_conditions: ADP-Glo; 25 nM GST-RIPK1, 300 μM ATP; assay lower limit ~25 nM; read-out: RIPK1 V0 Ec50
pEC50: −log10 of the molar value. Counter-ions that a name gives are not always drawn.
Please respond with reported pEC50 for every item in the list.

O=C(c1cnn2c1CSCC2)N1CCC2(CC1)O[C@@H]1CC[C@@H](c3cc(F)cc(F)c3)N1C2=O; 6.13

Give one value of pEC50 per listed compound.
1. O=C1N2[C@@H](CC[C@H]2c2cc(F)cc(F)c2)OC12CCN(c1ncnc3c(F)cnn13)CC2
2. N#Cc1ccc(N2CCC3(CC2)O[C@@H]2CC[C@@H](c4cc(F)cc(F)c4)N2C3=O)n2nccc12 [Example 14.1, TFA]

Ans:
["> 7.60", "> 7.60"]
